# system under test: Metabotropic glutamate receptor 8 (Rattus norvegicus) (UniProt P70579)
# Sequence (P70579 whole entry, looked up): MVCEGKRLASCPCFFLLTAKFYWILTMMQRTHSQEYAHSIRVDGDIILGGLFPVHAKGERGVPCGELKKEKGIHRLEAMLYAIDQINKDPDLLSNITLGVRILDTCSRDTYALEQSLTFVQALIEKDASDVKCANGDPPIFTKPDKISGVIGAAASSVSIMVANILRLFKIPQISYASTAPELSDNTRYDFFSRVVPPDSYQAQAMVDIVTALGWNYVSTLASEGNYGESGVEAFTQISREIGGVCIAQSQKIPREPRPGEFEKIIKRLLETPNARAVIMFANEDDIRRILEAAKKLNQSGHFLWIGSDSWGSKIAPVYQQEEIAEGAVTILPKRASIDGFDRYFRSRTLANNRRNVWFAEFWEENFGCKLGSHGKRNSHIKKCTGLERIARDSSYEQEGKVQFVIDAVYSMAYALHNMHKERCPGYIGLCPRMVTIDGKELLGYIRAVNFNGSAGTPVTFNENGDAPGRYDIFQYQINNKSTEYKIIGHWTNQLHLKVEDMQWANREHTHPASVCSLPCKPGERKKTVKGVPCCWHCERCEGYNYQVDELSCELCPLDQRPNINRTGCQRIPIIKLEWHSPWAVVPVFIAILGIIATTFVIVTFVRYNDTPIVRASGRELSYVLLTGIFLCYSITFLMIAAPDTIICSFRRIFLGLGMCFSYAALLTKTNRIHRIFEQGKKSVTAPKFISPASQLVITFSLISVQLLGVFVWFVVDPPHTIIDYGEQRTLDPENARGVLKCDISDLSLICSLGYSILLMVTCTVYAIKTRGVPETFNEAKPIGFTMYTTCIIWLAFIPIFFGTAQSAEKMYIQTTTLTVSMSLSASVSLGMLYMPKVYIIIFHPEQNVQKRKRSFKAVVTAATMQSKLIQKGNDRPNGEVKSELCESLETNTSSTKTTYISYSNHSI
# procedure text: mGluR8 Gi/Go-coupled signaling modulation – cell-based, rat, thallium flux, HTS, primary screen (AID 488969)
# test context: HEK293 rat mGluR8, GIRK (G protein-gated inwardly rectifying potassium channel) thallium flux, FluoZin2; at 10 µM; stronger effect = higher value; submaximal glutamate (EC20) added with thallium
Over roughly 110,000 compounds, “z-score” has its median near -0.1; the highest 2% begin near 2. This excerpt belongs to a sample that is enriched for the highest values.
Class key for z-score values: low band: < -0.2; middle band: ≥ -0.2 and < 0.4; high band: ≥ 0.4

| compound | class assignment |
| --- | --- |
| O=C(CCSc1nc(-c2ccc3c(c2)OCO3)cc(C(F)(F)F)n1)NCc1ccco1 | high band |
| CC(C)n1c(N2CCN(CC(=O)NCc3cccs3)CC2)nc2ccccc21 | middle band |
| CCOC(=O)C1(C(=O)OCC)CC1c1ccccc1 (configuration not stated) | middle band |
| CCOC(=O)C(CC)n1cnc2c(nnn2-c2ccc(OC)cc2)c1=O (configuration not stated) | high band |
| CS(=O)(=O)N(CC(=O)NCc1ccco1)c1ccc(Cl)c(C(F)(F)F)c1 | high band |
| CC(=O)N(c1ccccc1)c1nc(C)cc(C)c1C#N | middle band |
| Cc1ccc(/C=N/Nc2ncc(Cl)cc2Cl)s1 | high band |
| CC(C)(C)S(=O)c1cccs1 (configuration not stated) | high band |
| N=c1sccn1CC(=O)Nc1ccc(Cl)c(S(=O)(=O)N2CCOCC2)c1 | middle band |
| CCc1cc(C(=O)OC)c(NC(=O)CCC(=O)O)s1 | middle band |
| O=C1CN=C(Nc2cccc(C(F)(F)F)c2)N1C1CCCC1 | low band |
| Cc1cc(C)c2nc(SCC(=O)NCCC3=CCCCC3)cc(C)c2c1 | high band |
| COc1ccc(N(CC(=O)NCc2ccco2)S(C)(=O)=O)cc1Cl | middle band |
| CCOC(=O)C(CC)n1cnc2c(nnn2-c2ccc(C)cc2)c1=O (configuration not stated) | low band |
| Cn1ncc(Br)c1C(=O)OCC(=O)Nc1nc(-c2ccccc2)cs1 | low band |
| CS(=O)(=O)N(CC(=O)NCc1ccco1)c1cc(C(F)(F)F)ccc1Cl | middle band |
| Cc1cc(C)c2nc(SCC(=O)NCCN3C(=O)CSC3=O)cc(C)c2c1 | low band |
| N#CCN1C(=S)N=C(Nc2cccc(Cl)c2)C12CCCCC2 | high band |
| FC(F)(F)c1cccc(NC(=S)NC2CCCC2)c1 | high band |
| Cc1ccc(/C=N/Nc2nc(Cl)c(Cl)cc2Cl)s1 | high band |
| O=C1/C(=C/c2ccc(F)cc2)SC(=S)N1Nc1ncc(C(F)(F)F)cc1Cl | high band |
| COc1cc(/C=C2\SC(=S)N(Nc3ncc(C(F)(F)F)cc3Cl)C2=O)ccc1O | high band |
| COc1ccc(N(CC(=O)NCCC2=CCCCC2)S(C)(=O)=O)cc1OC | middle band |
| CSc1ccccc1NC(=O)C1CC(c2ccccc2O)=NO1 (configuration not stated) | low band |
| Cc1ccc(NC(=O)CSc2nnc(CCCCCNC(=O)OC(C)(C)C)o2)c(C)c1 | high band |
| CCC(C(=O)OC)n1cnc2c(nnn2-c2ccc(OC)cc2)c1=O (configuration not stated) | low band |
| O=C(CNS(=O)(=O)c1ccccc1)N1CCN(c2ccccc2)CC1 | middle band |
| COC(=O)Nc1nnc(Cc2ccc(OC)cc2)s1 | low band |
| COC(=O)Nc1nnc(Cc2ccccc2)s1 | low band |
| CC(Nc1cc(N2CCCC2)ccc1[N+](=O)[O-])c1ccccc1 (configuration not stated) | low band |
| CN(C#N)c1nc(Cl)nc(Nc2cccc(Cl)c2)n1 | middle band |
| COc1ccccc1OCc1ccc(C(=O)Nc2ccccc2F)cc1 | middle band |
| Cc1cc(NC(=O)c2ccc(COc3ccc(Cl)c(C)c3)o2)no1 | low band |
| CC1Cc2ccccc2N1C(=O)COC(=O)Cn1cnc2ccccc2c1=O (configuration not stated) | low band |
| Cc1ccc(S(=O)(=O)N2CCOCC2)cc1NC(=O)Cn1ccsc1=N | middle band |
| COc1cc2nc(CN3C(=O)c4ccccc4C3=O)oc(=O)c2cc1OC | low band |
| CCOC(=O)C(CCOc1cccc(CC)c1)C(=O)OCC | low band |
| COc1ccc(-c2cc(CNC(=O)CCl)on2)cc1 | middle band |
| CC1CCC2(CC1)C(Nc1cccc(Cl)c1)=NC(=S)N2CC#N (configuration not stated) | high band |
| CCOc1ccc(OCCOCCNCCOC)cc1 | middle band |
| CNC(=O)NC(=O)CSc1nc2ccccc2n1CCOC | low band |
| CN1CCN(CCNC(=O)Nc2ccccc2C(F)(F)F)CC1 | low band |
| Cc1ccc(-n2nnnc2SCC(=O)NCCC2=CCCCC2)c(C)c1 | middle band |
| CCC1CCCCN1Cc1ccc(OC)c(C)c1C (configuration not stated) | middle band |
| COC(=O)c1ccccc1NC(=O)C1CC(c2ccccc2O)=NO1 (configuration not stated) | high band |
| CC(C)(C)/C(O)=C/c1nc2ccccc2[nH]c1=O | low band |
| CCc1ccccc1N(CC(=O)O)S(C)(=O)=O | high band |

The origin of these recorded values is PubChem BioAssay AID488969.
